- TARGET_UNDER_TEST: Adenosine receptors; A1 & A3 (Rattus norvegicus) (UniProt P25099+P28647)
- Sequence (P25099 whole entry): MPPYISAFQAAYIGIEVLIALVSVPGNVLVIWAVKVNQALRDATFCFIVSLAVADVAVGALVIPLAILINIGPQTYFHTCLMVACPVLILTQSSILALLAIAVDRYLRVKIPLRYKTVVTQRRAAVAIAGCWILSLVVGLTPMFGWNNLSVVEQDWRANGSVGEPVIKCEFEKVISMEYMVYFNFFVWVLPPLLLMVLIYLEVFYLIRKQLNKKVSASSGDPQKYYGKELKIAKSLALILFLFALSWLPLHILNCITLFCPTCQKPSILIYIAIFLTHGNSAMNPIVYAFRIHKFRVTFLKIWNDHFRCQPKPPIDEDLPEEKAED
- TEST_METHOD_NOTES: Ratio of displacement of A1 receptor to A3 receptor
- Assay type: protein assay
METRIC_NAME: Ratio
Write the value as a bare number.

So what does the record say about Ratio for O[C@@H]1[C@H](O)[C@@H](CCl)O[C@H]1n1cnc2c(NCc3cccc(I)c3)ncnc21 ?
1.4

Reported Ratio for CCCSC[C@H]1O[C@@H](n2cnc3c(NC4CCCC4)ncnc32)[C@H](O)[C@@H]1O : what is it?
0.39

====

- TARGET_UNDER_TEST: Adenosine receptor A1 (Rattus norvegicus)
- TEST_METHOD_NOTES: Percentage displacement of [3H]DPCPX from rat cortical membranes Adenosine A1 receptor at 10 uM
- Format: cell membranes
- TEST_CONTEXT: Membrane
# cutoff 30% applies to Displacement; >= gives label 1, < gives label 0

Before answering, review these 5 worked examples.
{"SMILES_NOTATION": "O[C@@H]1[C@H](O)[C@@H](CCl)O[C@H]1n1cnc2c(NCc3ccccc3)ncnc21", "ANSWER_LABEL": "label 1"}
{"SMILES_NOTATION": "CCSC[C@H]1O[C@@H](n2cnc3c(NCc4ccccc4)ncnc32)[C@H](O)[C@@H]1O", "ANSWER_LABEL": "label 0"}
{"SMILES_NOTATION": "CC(C)SC[C@H]1O[C@@H](n2cnc3c(NCc4ccccc4)ncnc32)[C@H](O)[C@@H]1O", "ANSWER_LABEL": "label 0"}
{"SMILES_NOTATION": "CSC[C@H]1O[C@@H](n2cnc3c(NCc4ccccc4)ncnc32)[C@H](O)[C@@H]1O", "ANSWER_LABEL": "label 1"}
{"SMILES_NOTATION": "CCCSC[C@H]1O[C@@H](n2cnc3c(NCc4cccc(I)c4)ncnc32)[C@H](O)[C@@H]1O", "ANSWER_LABEL": "label 1"}

Now look at this one.
Can CC(C)SC[C@H]1O[C@@H](n2cnc3c(NCc4cccc(I)c4)ncnc32)[C@H](O)[C@@H]1O be said to have Displacement at or above 30%?
label 1
